System: KAI3 (IL-2 2.5 ng/mL)
ASSAY_TEXT: percent inhibition of viability; higher = more inhibition;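 also: normalised to DMSO-only wells as negative and benzethonium chloride as positive control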
EXPERIMENTAL_CONDITIONS: 72 h; 0.25 nM
Give percent inhibition of viability for every item shown.
Answer format: numeric, % implied, no suffix.

Note to self: percent inhibition of viability recorded for CCn1nnc2c(N3CCOCC3)nc(-c3ccc(NC(=O)Nc4ccc(C(=O)N5CCN(C)CC5)cc4)cc3)nc21 [PKI-402] (max concentration tested 2500 nM) was -2.89

Note to self: percent inhibition of viability recorded for Cc1cc(Nc2ncc(Cl)c(Nc3ccccc3S(=O)(=O)C(C)C)n2)c(OC(C)C)cc1C1CCNCC1 [Ceritinib] (max concentration tested 2500 nM) was 0.47

Note to self: percent inhibition of viability recorded for O=C(c1cccc(Cl)c1F)N1CCN(Cc2cccc(Nc3nccs3)n2)CC1 [MK-8745] (max concentration tested 2500 nM) was -2.71

Note to self: percent inhibition of viability recorded for CCNC(=O)Nc1ccc(-c2nc3c(c(N4CCOC[C@@H]4C)n2)CCN(C2COC2)C3)cc1 [RG-7603] (max concentration tested 2500 nM) was -2.16

----------
Test system: normal primary NK cells, pool 3 (3 donors) (IL-2 2.5 ng/mL)
ASSAY_TEXT: percent inhibition of viability; higher = more inhibition
EXPERIMENTAL_CONDITIONS: 72 h; 1 nM
MEASUREMENT_KIND: percent inhibition of viability (%)
Answer format: numeric, % implied, no suffix.

Note to self: percent inhibition of viability recorded for CCC1=C[C@@H]2CN(C1)Cc1c([nH]c3ccccc13)[C@@](C(=O)OC)(c1cc3c(cc1OC)N(C)[C@H]1[C@@](O)(C(=O)OC)[C@H](OC(C)=O)[C@]4(CC)C=CCN5CC[C@]31[C@@H]54)C2 [Vinorelbine] (max concentration tested 10000 nM) was -16.2

Note to self: percent inhibition of viability recorded for CC(C)CC(=O)Nc1n[nH]c2c1CN(C(=O)C1CCN(C)CC1)C2(C)C (max concentration tested 10000 nM) was -6.64

Note to self: percent inhibition of viability recorded for COc1ccc(-c2nc(N3CCOCC3)c3sc(CN(C)c4ncc(C(=O)NO)cn4)cc3n2)cn1 [CUDC-907] (max concentration tested 10000 nM) was -5.77

Note to self: percent inhibition of viability recorded for CN(C)Cc1ccc(S(=O)(=O)n2ccc(/C=C/C(=O)NO)c2)cc1 [Resminostat] (max concentration tested 10000 nM) was -1.68

Note to self: percent inhibition of viability recorded for C[C@@H]1COC(Nc2ccc3ncnc(Nc4ccc(OCc5nccs5)c(Cl)c4)c3c2)=N1 [Varlitinib] (max concentration tested 10000 nM) was -15.9

Note to self: percent inhibition of viability recorded for Cn1cc(CNCC2CCN(c3ncc(C(=O)NO)cn3)CC2)c2ccccc21 [Quisinostat] (max concentration tested 1000 nM) was -1.5

Note to self: percent inhibition of viability recorded for CN1CCN(CCOc2cc(OC3CCOCC3)c3c(Nc4c(Cl)ccc5c4OCO5)ncnc3c2)CC1 [Saracatinib] (max concentration tested 10000 nM) was -6.07

Note to self: percent inhibition of viability recorded for COc1ccc(-c2ccc3ncc4c(c3c2)n(-c2ccc(N3CCNCC3)c(C(F)(F)F)c2)c(=O)n4C)cn1 [NVP-BGT226] (max concentration tested 1000 nM) was -7.37

Note to self: percent inhibition of viability recorded for S=C(NCc1ccc2c(c1)OCO2)N1CCN(c2ncnc3c2oc2ccccc23)CC1 [Amuvatinib] (max concentration tested 10000 nM) was -1.07

Note to self: percent inhibition of viability recorded for CO[C@@H]1[C@H](N(C)C(=O)c2ccccc2)C[C@H]2O[C@]1(C)n1c3ccccc3c3c4c(c5c6ccccc6n2c5c31)C(=O)NC4 [Midostaurin] (max concentration tested 10000 nM) was -7.31

Note to self: percent inhibition of viability recorded for CCN(c1cc(-c2ccc(CN3CCOCC3)cc2)cc(C(=O)NCc2c(C)cc(C)[nH]c2=O)c1C)C1CCOCC1 [Tazemetostat] (max concentration tested 10000 nM) was -4.31

Note to self: percent inhibition of viability recorded for C[C@@H]1CN(Cc2ccc(F)cc2)[C@@H](C)CN1C(=O)c1cc2c(C(=O)C(=O)N(C)C)cn(C)c2cc1Cl [Talmapimod] (max concentration tested 10000 nM) was -3.75

Note to self: percent inhibition of viability recorded for C/C(=C\c1csc(C)n1)[C@@H]1C[C@@H]2O[C@]2(C)CCC[C@H](C)[C@H](O)[C@@H](C)C(=O)C(C)(C)[C@@H](O)CC(=O)N1 [Ixabepilone] (max concentration tested 1000 nM) was -5.18

Note to self: percent inhibition of viability recorded for Nc1ncnc2c1c(COc1cccc(Cl)c1)nn2C1CCOCC1 (max concentration tested 10000 nM) was -12.8

Note to self: percent inhibition of viability recorded for Cc1ccc(C(=O)N(CCCN)[C@@H](c2oc3cc(Cl)ccc3c(=O)c2Cc2ccccc2)C(C)C)cc1 (max concentration tested 100 nM) was 16.7

Note to self: percent inhibition of viability recorded for CNCc1ccc(-c2[nH]c3cc(F)cc4c3c2CCNC4=O)cc1 [Rucaparib] (max concentration tested 10000 nM) was -0.27

Note to self: percent inhibition of viability recorded for O=C(CCBr)N1CCN(C(=O)CCBr)CC1 [Pipobroman] (max concentration tested 10000 nM) was -9.04

Note to self: percent inhibition of viability recorded for N[C@@H]1CCCN(c2c(/C=C3\SC(=O)NC3=O)cccc2-c2ccccc2)C1 [AZD1208] (max concentration tested 10000 nM) was -9.02

Note to self: percent inhibition of viability recorded for O=C(c1cc(Cc2n[nH]c(=O)c3ccccc23)ccc1F)N1CCN(C(=O)C2CC2)CC1 [Olaparib] (max concentration tested 10000 nM) was -7.91

Note to self: percent inhibition of viability recorded for CCc1c(C(=O)C(N)=O)c2c(OCC(=O)O)cccc2n1Cc1ccccc1 [Varespladib] (max concentration tested 10000 nM) was -8.31

Note to self: percent inhibition of viability recorded for Cc1cc(OCc2nnc(SC3CCCC3)n2-c2cccnc2)ccc1-c1ccc(S(C)(=O)=O)cc1 [NMS-873] (max concentration tested 10000 nM) was -2.38

Note to self: percent inhibition of viability recorded for CN[C@@H]1C[C@H]2O[C@@](C)([C@@H]1OC)n1c3ccccc3c3c4c(c5c6ccccc6n2c5c31)C(=O)N[C@H]4O [UCN-01] (max concentration tested 10000 nM) was -5.75

Note to self: percent inhibition of viability recorded for c1cc(CN2CCCNCCNCCCNCC2)ccc1CN1CCCNCCNCCCNCC1 [Plerixafor] (max concentration tested 10000 nM) was -11.8

----------
Test system: IMC-1 (IL-2 20 ng/mL)
ASSAY_TEXT: percent inhibition of viability; higher = more inhibition
EXPERIMENTAL_CONDITIONS: 72 h; 10000 nM
MEASUREMENT_KIND: percent inhibition of viability (%)
Answer format: numeric, % implied, no suffix.

IMC-1 (IL-2 20 ng/mL) data for CC[C@H](CO)Nc1nc(NCc2ccccc2)c2ncn(C(C)C)c2n1 [Seliciclib] (max concentration tested 10000 nM) ; its percent inhibition of viability: 13.2

IMC-1 (IL-2 20 ng/mL) data for CC[C@@]1(O)C(=O)OCc2c1cc1n(c2=O)Cc2cc3c(CN(C)C)c(O)ccc3nc2-1 [Topotecan] (max concentration tested 10000 nM) ; its percent inhibition of viability: 100

IMC-1 (IL-2 20 ng/mL) data for COc1ccc(-c2nc(N3CCOCC3)c3sc(CN(C)c4ncc(C(=O)NO)cn4)cc3n2)cn1 [CUDC-907] (max concentration tested 10000 nM) ; its percent inhibition of viability: 100

IMC-1 (IL-2 20 ng/mL) data for CC(C)N(CCCNC(=O)Nc1ccc(C(C)(C)C)cc1)C[C@H]1O[C@@H](n2cc(Br)c3c(N)ncnc32)[C@H](O)[C@@H]1O [SGC0946] (max concentration tested 10000 nM) ; its percent inhibition of viability: 17.2

IMC-1 (IL-2 20 ng/mL) data for Cc1c(Cn2c(C)nc3c(C(=O)O)cc(N4CCOCC4)cc32)cccc1C(F)(F)F (max concentration tested 10000 nM) ; its percent inhibition of viability: 11.3

IMC-1 (IL-2 20 ng/mL) data for COc1cc(Nc2c(C#N)cnc3cc(OCCCN4CCN(C)CC4)c(OC)cc23)c(Cl)cc1Cl [Bosutinib] (max concentration tested 10000 nM) ; its percent inhibition of viability: 96.6

IMC-1 (IL-2 20 ng/mL) data for CC(C)CC(=O)Nc1n[nH]c2c1CN(C(=O)C1CCN(C)CC1)C2(C)C (max concentration tested 10000 nM) ; its percent inhibition of viability: 101

IMC-1 (IL-2 20 ng/mL) data for CCc1cc(Nc2nccc(-c3c(-c4ccc(OC)c(C(=O)Nc5c(F)cccc5F)c4)nc4ccccn34)n2)c(OC)cc1N1CCC(N2CCN(S(C)(=O)=O)CC2)CC1 (max concentration tested 10000 nM) ; its percent inhibition of viability: -4.76

IMC-1 (IL-2 20 ng/mL) data for CO[C@@]12[C@H](COC(N)=O)C3=C(C(=O)C(C)=C(N)C3=O)N1C[C@@H]1N[C@@H]12 [Mitomycin C] (max concentration tested 10000 nM) ; its percent inhibition of viability: 98.4

IMC-1 (IL-2 20 ng/mL) data for Cc1cc(Nc2cc(N3CCN(C)CC3)nc(Sc3ccc(NC(=O)C4CC4)cc3)n2)n[nH]1 [Tozasertib] (max concentration tested 10000 nM) ; its percent inhibition of viability: 98

IMC-1 (IL-2 20 ng/mL) data for COc1ccc(COc2cc3oc(=O)c4cc(C(C)O)ccc4c3cc2OC)cc1 (configuration not stated) [Palomid-529] (max concentration tested 10000 nM) ; its percent inhibition of viability: 7.18

IMC-1 (IL-2 20 ng/mL) data for C[C@]12C=CC(=O)C=C1CC[C@@H]1[C@@H]2C(=O)C[C@@]2(C)[C@H]1CC[C@]2(O)C(=O)CO [Prednisone] (max concentration tested 10000 nM) ; its percent inhibition of viability: 15.4
